tested on: rodent lifetime carcinogenesis bioassay, tumor incidence TD50; assay: carcinogenic potency in animals, long-term in vivo studies, CPDB compilation (AID 1745844); settings: mouse; strain Charles River CD1; females; in feed; site: urinary bladder; lesion: transitional-cell carcinoma; dosed 36 weeks; study length 68 weeks
PARAMETER: TD50

For the compound shown here, O=CNc1nc(-c2ccc([N+](=O)[O-])o2)cs1 , give the reported TD50.
33.3 mg/kg/day

---

test system: rodent lifetime carcinogenesis bioassay, tumor incidence TD50; test: carcinogenic potency in animals, long-term in vivo studies, CPDB compilation (AID 1745844); settings: mouse; strain B6C3F1; females; by gavage; site: lung; lesion: alveolar/bronchiolar adenoma + alveolar/bronchiolar carcinoma; dosed 103 weeks; study length 105 weeks
PARAMETER: log10 of TD50 (log10 of the value in mg/kg/day)
A value of 2 here means TD50 of 100 in mg/kg/day, since values are log10.

For the molecule shown here, C[C@H](CCC(=O)O)[C@H]1CC[C@H]2[C@@H]3CC[C@@H]4C[C@H](O)CC[C@]4(C)[C@H]3CC[C@]12C , give the reported log10 of TD50.
3.01

For the molecule shown here, Nc1cc([N+](=O)[O-])ccc1O , give the reported log10 of TD50.
3.34

For the molecule shown here, Clc1ccccc1 , give the reported log10 of TD50.
2.79

For the molecule shown here, C=CC(=O)NCO , give the reported log10 of TD50.
2.05

For the molecule shown here, C=C(C)CCl , give the reported log10 of TD50.
3.71

For the molecule shown here, Oc1ccc(O)cc1 , give the reported log10 of TD50.
4.28

For the molecule shown here, CCCCCl , give the reported log10 of TD50.
3.06

For the molecule shown here, ClC=C(Cl)Cl , give the reported log10 of TD50.
3.59

For the molecule shown here, c1cc(OCC2CO2)cc(OCC2CO2)c1 (stereo not given) , give the reported log10 of TD50.
3.68

For the molecule shown here, CC(I)C1OCC(CO)O1 (stereo not given) , give the reported log10 of TD50.
3.44

Sourced from PubChem BioAssay AID1745844
